Test System: HLA-DRB1*1301 (Homo sapiens, UniProt P01903+P01911, A100E/A169T/K41T/L162R/M171V/P40S/Q125H/Q178H/Q39Y/Q99D/R42S/S66N/T262R/W38E/Y61H)
Protocol: biochemical
Type: binding
Run Conditions: binding inhibition assay; NB = non-binder (no dose-dependent inhibition); read-out: DRB1*1301 IC50
Where a SMILES comes first, the peptide text is derived from it.
Endpoint Label: IC50 (µM)
One number for each entry, in µM.

Please look at the items below and tell me IC50 for each one, in order.
1. CC(=O)N[C@@H](Cc1ccccc1)C(=O)N[C@@H](CCC(N)=O)C(=O)N[C@@H](CC(N)=O)C(=O)N[C@@H](Cc1ccc(O)cc1)C(=O)N[C@H](C(=O)N[C@@H](Cc1ccc(O)cc1)C(=O)N[C@@H](CC(C)C)C(=O)N[C@@H](CO)C(=O)N[C@@H](CCCCN)C(=O)N[C@@H](CC(N)=O)C(=O)N[C@H](C(=O)N[C@H](C(=O)N[C@@H](CC(=O)O)C(=O)N[C@@H](CC(N)=O)C(=O)N[C@@H](Cc1c[nH]c2ccccc12)C(=O)N[C@@H](CCC(=O)O)C(N)=O)C(C)C)C(C)C)[C@@H](C)O [AMA1_004] (Ac-FQNYTYLSKNVVDNWE-NH2)
2. CC[C@H](C)[C@H](NC(=O)[C@H](CCC(=O)O)NC(=O)[C@@H](NC(=O)[C@H](CCCCN)NC(=O)[C@H](CCCCN)NC(C)=O)C(C)C)C(=O)N[C@@H](Cc1ccccc1)C(=O)N[C@@H](CCCNC(=N)N)C(=O)N[C@@H](CO)C(=O)N[C@@H](CCCNC(=N)N)C(=O)N[C@@H](Cc1ccccc1)C(=O)N[C@@H](CO)C(=O)N[C@@H](CO)C(=O)N[C@@H](CCCCN)C(=O)N[C@@H](CC(C)C)C(=O)N[C@@H](CCC(N)=O)C(=O)N[C@@H](CS)C(=O)N[C@@H](CCC(N)=O)C(N)=O [RIPR_011] (Ac-KKVEIFRSRFSSKLQCQ-NH2)
3. CC[C@H](C)[C@H](NC(=O)[C@H](Cc1ccccc1)NC(=O)[C@H](Cc1c[nH]cn1)NC(=O)[C@H](CC(=O)O)NC(C)=O)C(=O)N[C@@H](CCC(=O)O)C(=O)N[C@@H](C)C(=O)N[C@@H](CO)C(=O)N[C@@H](CCCCN)C(=O)N[C@@H](CCCCN)C(=O)N[C@@H](CCC(=O)O)C(=O)N[C@@H](CO)C(=O)N[C@@H](CCC(N)=O)C(=O)N[C@@H](CC(C)C)C(=O)N[C@@H](CC(C)C)C(N)=O [EBA175_006] (Ac-DHFIEASKKESQLL-NH2)

1: 70; 2: 9.43; 3: 74.6

---

Test System: HLA-A*2402 (Homo sapiens, UniProt P04439, D101N/D140Y/D185E/E176V/E190D/F33S/G103R/G107R/I119L/I121M/I306V/K335N/L105A/L180Q/L300P/N151K/N90K/Q86E/Q94H/R106L/R138H/R89G/T104I/T345S/V100E/W191G/Y123F)
Protocol: In vitro class I HLA binding assay (fluorescence polarization competition)
Run Conditions: allele A*2402; cell-free competition, fluorescence polarization at 72 hours; Non-binder = no dose-dependent inhibition; read-out: IC50
Where a SMILES comes first, the peptide text is derived from it.
Endpoint Label: pIC50
Answers are plain numbers, as −log10 of the molar value.

Solved entries:
Compound	Test Result
CC[C@H](C)[C@H](NC(=O)[C@@H](NC(=O)[C@H](CO)NC(=O)[C@H](CO)NC(=O)[C@H](CCC(=O)O)NC(=O)[C@H](CC(C)C)NC(=O)[C@@H]1CCCN1C(=O)[C@H](CC(C)C)NC(=O)[C@@H](N)CCCCN)[C@@H](C)O)C(=O)O [EBA175_0896] (H-KLPLESSTI-OH)	6.67
CC[C@H](C)[C@H](NC(=O)[C@H](CCCCN)NC(=O)[C@H](CC(N)=O)NC(=O)[C@H](CCC(=O)O)NC(=O)[C@H](C)NC(=O)[C@H](CCCCN)NC(=O)[C@@H](NC(=O)[C@H](CO)NC(=O)[C@H](Cc1ccc(O)cc1)NC(=O)CN)[C@@H](C)O)C(=O)O [EBA175_0255] (H-GYSTKAENKI-OH)	5.74

Please look at the items below and tell me pIC50 for each one, in order.
1. C[C@@H](O)[C@H](NC(=O)[C@H](Cc1ccccc1)NC(=O)[C@H](Cc1ccc(O)cc1)NC(=O)[C@@H](N)CO)C(=O)N[C@@H](Cc1ccc(O)cc1)C(=O)N[C@@H](CC(=O)O)C(=O)N[C@@H](CO)C(=O)N[C@@H](CCC(=O)O)C(=O)N[C@@H](CCC(=O)O)C(=O)N[C@@H](Cc1ccc(O)cc1)C(=O)O [EBA175_1390] (H-SYFTYDSEEY-OH)
2. CC(C)C[C@H](NC(=O)[C@H](CCCCN)NC(=O)[C@H](CCCCN)NC(=O)[C@H](CC(=O)O)NC(=O)[C@H](Cc1ccc(O)cc1)NC(=O)[C@H](CC(C)C)NC(=O)[C@H](CC(N)=O)NC(=O)[C@H](Cc1ccc(O)cc1)NC(=O)[C@@H](N)CCCNC(=N)N)C(=O)O [EBA175_1316] (H-RYNLYDKKL-OH)

1: 4.65; 2: 6.77

---

Test System: HLA-DRB1*1301 (Homo sapiens, UniProt P01903+P01911, A100E/A169T/K41T/L162R/M171V/P40S/Q125H/Q178H/Q39Y/Q99D/R42S/S66N/T262R/W38E/Y61H)
Protocol: biochemical
Assay type: binding
Run Conditions: binding inhibition assay; NB = non-binder (no dose-dependent inhibition); read-out: DRB1*1301 IC50
Where a SMILES comes first, the peptide text is derived from it.
Assignment: determine reported IC50 for the given molecules.
Numbers only, in µM.

Molecule	Unit Spec	Test Result
CC[C@H](C)[C@H](NC(=O)[C@H](CC(C)C)NC(=O)[C@H](Cc1c[nH]cn1)NC(=O)[C@H](Cc1ccccc1)NC(=O)[C@H](CCCCN)NC(=O)[C@H](CO)NC(=O)[C@H](CCCCN)NC(C)=O)C(=O)N[C@@H](CO)C(=O)N[C@@H](CCCNC(=N)N)C(=O)N[C@@H](CC(N)=O)C(=O)N[C@@H](CO)C(=O)N[C@@H](CCCNC(=N)N)C(=O)N[C@H](C(=O)N[C@@H](CC(N)=O)C(=O)N[C@@H](CCC(N)=O)C(=O)N[C@@H](Cc1ccc(O)cc1)C(N)=O)[C@@H](C)O [RIPR_009] (Ac-KSKFHLISRNSRTNQY-NH2)	µM	0.064

Please look at the items below and tell me IC50 for each one, in order.
1. CC[C@H](C)[C@H](NC(=O)[C@H](CO)NC(=O)[C@@H](NC(=O)[C@@H]1CCCN1C(=O)[C@@H](NC(=O)[C@H](CC(=O)O)NC(C)=O)C(C)C)[C@@H](C)CC)C(=O)N[C@H](C(=O)N[C@@H](CCCNC(=N)N)C(=O)N[C@@H](CC(N)=O)C(=O)N[C@@H](CC(N)=O)C(=O)N[C@@H](CCC(=O)O)C(=O)N[C@@H](CCC(N)=O)C(=O)N[C@H](C(=O)N[C@@H](CO)C(=O)N[C@@H](CCC(N)=O)C(=O)N[C@@H](CCC(=O)O)C(=O)N[C@@H](C)C(N)=O)[C@@H](C)O)[C@@H](C)CC [EBA175_014] (Ac-DVPISIIRNNEQTSQEA-NH2)
2. CC[C@H](C)[C@H](NC(=O)[C@H](CC(=O)O)NC(=O)[C@H](CCC(=O)O)NC(=O)[C@H](Cc1ccc(O)cc1)NC(C)=O)C(=O)N[C@H](C(=O)N[C@@H](CC(C)C)C(=O)N[C@@H](CCCCN)C(=O)N[C@@H](CO)C(=O)N[C@@H](Cc1c[nH]cn1)C(=O)N[C@@H](CCSC)C(=O)N[C@@H](CC(N)=O)C(=O)N[C@@H](CCCNC(=N)N)C(=O)N[C@@H](CCC(=O)O)C(=O)N[C@@H](CO)C(=O)N[C@@H](CC(=O)O)C(=O)N[C@@H](CC(=O)O)C(N)=O)C(C)C [EBA175_015] (Ac-YEDIVLKSHMNRESDD-NH2)

1. 14.1
2. 4.92

---

Test System: HLA-DRB1*0101 (Homo sapiens, UniProt P01903+P01911, A100R/D57E/F55L/F60I/F76Y/I96L/L162R/M171V/P40L/Q125E/R42F/V115G/Y59C)
Construct: purchased
Protocol: biochemical
Type: binding
Source text: The binding assay conducted by EpiVax yields an indirect measure of peptide-MHC affinity as it utilizes a competition assay format per the methodology described in Steere et al. ([35]). […] Time-resolved fluorescence measurement of the bound labeled reference peptide complex present in each mixture is detected with a europium-linked probe via fluorescent spectrophotometry using a SpectraMax M5 system. […]
Where a SMILES comes first, the peptide text is derived from it.
Endpoint Label: IC50 (nM)
Answers are plain numbers, in nM.

Solved entries:
Compound	IC50 (nM)
CC[C@H](C)[C@H](NC(=O)[C@H](CC(N)=O)NC(=O)[C@@H](NC(=O)[C@H](CCSC)NC(=O)[C@@H](N)CC(=O)O)[C@@H](C)O)C(=O)N[C@@H](CC(C)C)C(=O)N[C@@H](CCC(N)=O)C(=O)N[C@@H](CCC(N)=O)C(=O)N[C@@H](CO)C(=O)N[C@@H](CCC(=O)O)C(=O)N[C@@H](CC(C)C)C(=O)N[C@@H](CC(C)C)C(=O)N[C@@H](CC(C)C)C(=O)N[C@H](C(=O)N[C@@H](CC(N)=O)C(=O)N[C@@H](CC(C)C)C(N)=O)[C@@H](C)O [RH5_010A] (H-DMTNILQQSELLLTNL-NH2)	16
CC[C@H](C)[C@H](NC(=O)[C@H](CC(N)=O)NC(=O)[C@H](CC(N)=O)NC(=O)[C@H](Cc1ccccc1)NC(=O)[C@H](CC(N)=O)NC(=O)[C@H](CC(N)=O)NC(=O)[C@H](CC(N)=O)NC(=O)[C@H](CC(N)=O)NC(=O)[C@H](CO)NC(=O)[C@H](CCCNC(=N)N)NC(=O)[C@H](CCSC)NC(=O)[C@H](CC(N)=O)NC(=O)[C@H](CC(C)C)NC(=O)[C@@H](NC(=O)[C@H](CC(N)=O)NC(=O)CNC(=O)[C@@H](N)CO)C(C)C)C(N)=O [EBA175_017A] (H-SGNVLNMRSNNNNFNNI-NH2)	814

Request the reported IC50 associated with CC[C@H](C)[C@H](NC(=O)[C@H](CO)NC(=O)[C@@H](NC(=O)[C@@H](N)CC(N)=O)[C@@H](C)CC)C(=O)N[C@@H](Cc1ccc(O)cc1)C(=O)N[C@@H](Cc1ccccc1)C(=O)N[C@@H](Cc1ccccc1)C(=O)N[C@@H](C)C(=O)N[C@@H](CO)C(=O)N[C@@H](Cc1ccccc1)C(=O)N[C@@H](Cc1ccccc1)C(=O)N[C@H](C(=O)N[C@@H](CC(C)C)C(=O)N[C@@H](Cc1ccc(O)cc1)C(=O)N[C@@H](Cc1ccccc1)C(=O)N[C@@H](C)C(=O)N[C@@H](CCCCN)C(N)=O)C(C)C [EBA175_001A] (H-NISIYFFASFFVLYFAK-NH2)
896
